- TGT: sGC α1/β1 heterodimer (Homo sapiens, UniProt Q02108+Q02153)
- Sequence (Q02108 1-690): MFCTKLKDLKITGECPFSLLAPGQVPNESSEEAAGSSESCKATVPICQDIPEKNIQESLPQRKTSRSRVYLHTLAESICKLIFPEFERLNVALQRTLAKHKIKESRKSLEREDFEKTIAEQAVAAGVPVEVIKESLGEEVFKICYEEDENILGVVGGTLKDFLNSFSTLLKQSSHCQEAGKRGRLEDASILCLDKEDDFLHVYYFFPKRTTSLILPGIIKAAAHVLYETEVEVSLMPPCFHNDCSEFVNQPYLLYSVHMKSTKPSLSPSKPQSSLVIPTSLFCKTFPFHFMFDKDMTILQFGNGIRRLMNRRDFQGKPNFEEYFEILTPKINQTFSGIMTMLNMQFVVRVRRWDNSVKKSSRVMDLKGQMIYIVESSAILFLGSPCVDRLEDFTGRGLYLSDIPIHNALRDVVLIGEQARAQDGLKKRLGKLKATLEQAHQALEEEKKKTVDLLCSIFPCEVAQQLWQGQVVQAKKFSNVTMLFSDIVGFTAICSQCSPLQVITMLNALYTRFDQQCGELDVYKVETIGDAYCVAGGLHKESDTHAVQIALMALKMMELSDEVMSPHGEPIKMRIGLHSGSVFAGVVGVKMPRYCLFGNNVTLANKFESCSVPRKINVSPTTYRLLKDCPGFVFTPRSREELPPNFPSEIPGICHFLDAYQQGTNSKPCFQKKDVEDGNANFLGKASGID
- Sequence (Q02153 1-619): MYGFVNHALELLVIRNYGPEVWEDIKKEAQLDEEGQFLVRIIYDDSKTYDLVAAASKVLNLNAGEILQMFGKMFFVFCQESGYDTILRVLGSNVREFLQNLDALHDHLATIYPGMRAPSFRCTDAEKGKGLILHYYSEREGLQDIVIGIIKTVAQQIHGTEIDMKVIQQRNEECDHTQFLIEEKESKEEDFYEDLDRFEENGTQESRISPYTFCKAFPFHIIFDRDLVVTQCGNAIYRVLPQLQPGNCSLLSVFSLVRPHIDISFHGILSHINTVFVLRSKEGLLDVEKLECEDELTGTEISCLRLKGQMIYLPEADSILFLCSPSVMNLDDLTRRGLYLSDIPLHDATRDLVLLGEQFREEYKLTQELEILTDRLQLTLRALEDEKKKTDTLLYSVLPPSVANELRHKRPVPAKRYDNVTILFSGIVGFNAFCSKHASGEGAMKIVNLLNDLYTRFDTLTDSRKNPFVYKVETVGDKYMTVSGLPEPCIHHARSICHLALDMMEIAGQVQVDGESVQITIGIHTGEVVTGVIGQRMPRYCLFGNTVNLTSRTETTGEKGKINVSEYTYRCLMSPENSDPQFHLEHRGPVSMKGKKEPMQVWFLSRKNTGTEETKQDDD
- ASSAY_OVERVIEW: Cell-based sGC functional assay (CASA assay): cGMP generation in CHO-K1/sGC cells, HTRF detection
- CONDITION_SET: inflection point (IP) of cGMP generation in CHO-K1/sGC cells, 4P fit; activity expressed as percentage of Compound A
- Procedure: Biological Assay 1: Cell-Based sGC Functional Assay (CASA Assay) sGC is a heme-containing enzyme that converts GTP to secondary messenger cGMP. […] A CHO-K1 cell line stably expressing the sGC α1/β1 heterodimer was generated using a standard transfection protocol. […] The level of intracellular cGMP was determined using an HTRF-based assay kit (CisBio, 62GM2PEC), which detects the displacement of a fluorescence labeled cGMP from its specific antibody. […]
PARAMETER_MEASURED: EC50 (nM)
Respond with the bare value in nM.

[in] I would be grateful if you could share the reported EC50 for CC1(c2ccc(C(F)(F)F)cc2)C(=O)Nc2nc(-c3cn4ccnc4c(CCC(F)(F)F)n3)nc(N)c21 (stereo not shown) [Example 189B] .
[out] 211

[in] I would be grateful if you could share the reported EC50 for CC1(c2ccc(F)cc2)C(=O)Nc2nc(-c3cn4ccnc4c(CCC(F)(F)C(F)(F)F)n3)nc(N)c21 (single isomer, unassigned) [Example 222B] .
[out] 578

[in] I would be grateful if you could share the reported EC50 for CC1(c2ccc(F)cc2)C(=O)Nc2nc(-c3cn4c(Cl)cnc4c(CCC(F)(F)C(F)(F)F)n3)nc(N)c21 (stereo not shown) [Example 255A] .
[out] 32

[in] I would be grateful if you could share the reported EC50 for Cn1cc(C2(C)C(=O)Nc3nc(-c4cn5ccnc5c(Cc5ccc(F)cc5)n4)nc(N)c32)nn1 (stereo not shown) [Example 65A] .
[out] 256
